Test system: UGT enzymes of human liver microsomes
Test Summary: Inhibition of raloxifene glucuronidation (G1, G2) in human liver microsomes
Assay type: biochemical
Test Conditions: G2; inhibitor 100 μM; raloxifene 50 μM, human liver microsomes 250 μg/ml, 15 min
Measure: % of control metabolism (SD, n = 3), raloxifene glucuronide G2

CCCCC/C=C\C/C=C\CCCCCCCC(=O)O
100 (4) %
O=C(O)Cc1ccccc1Nc1c(Cl)cccc1Cl [Diclofenac, reference compound]
53 (3) %
O=C(O[C@@H]1Cc2c(O)cc(O)cc2O[C@@H]1c1cc(O)c(O)c(O)c1)c1cc(O)c(O)c(O)c1 [Epigallocatechin gallate]
27 (2) %

% of control metabolism (SD, n = 3), raloxifene glucuronide G2 for O=C1C[C@@H](c2ccc(O)cc2)Oc2cc(O)cc(O)c21 is 40 (2) %

% of control metabolism (SD, n = 3), raloxifene glucuronide G2 for CCCCCCCCCCCCCCCC(=O)OC[C@H](O)[C@H]1OC(=O)C(O)=C1O [Ascorbyl palmitate] is 71 (4) %

% of control metabolism (SD, n = 3), raloxifene glucuronide G2 for COc1c(C)c2c(c(O)c1C/C=C(\C)CCC(=O)O)C(=O)OC2 [Mycophenolic acid, reference compound] is 89 (2) %

% of control metabolism (SD, n = 3), raloxifene glucuronide G2 for CCCCCCCCC(=O)NCc1ccc(O)c(OC)c1 [N-Vanillylnonanamide] is 62 (1) %

% of control metabolism (SD, n = 3), raloxifene glucuronide G2 for CCCCCCCCCCCCOC(=O)c1cc(O)c(O)c(O)c1 [Lauryl gallate] is 85 (3) %

% of control metabolism (SD, n = 3), raloxifene glucuronide G2 for COc1cc(CNC(=O)CCCC/C=C/C(C)C)ccc1O is 69 (4) %

meta.source: patent US20030215462A1
